# TESTED_TARGET: hTLR8 (Homo sapiens, UniProt Q9NR97)
# Construct: expressed in transfected cells; host or cells: HEK-Blue hTLR cells
# Sequence (Q9NR97 27-1041): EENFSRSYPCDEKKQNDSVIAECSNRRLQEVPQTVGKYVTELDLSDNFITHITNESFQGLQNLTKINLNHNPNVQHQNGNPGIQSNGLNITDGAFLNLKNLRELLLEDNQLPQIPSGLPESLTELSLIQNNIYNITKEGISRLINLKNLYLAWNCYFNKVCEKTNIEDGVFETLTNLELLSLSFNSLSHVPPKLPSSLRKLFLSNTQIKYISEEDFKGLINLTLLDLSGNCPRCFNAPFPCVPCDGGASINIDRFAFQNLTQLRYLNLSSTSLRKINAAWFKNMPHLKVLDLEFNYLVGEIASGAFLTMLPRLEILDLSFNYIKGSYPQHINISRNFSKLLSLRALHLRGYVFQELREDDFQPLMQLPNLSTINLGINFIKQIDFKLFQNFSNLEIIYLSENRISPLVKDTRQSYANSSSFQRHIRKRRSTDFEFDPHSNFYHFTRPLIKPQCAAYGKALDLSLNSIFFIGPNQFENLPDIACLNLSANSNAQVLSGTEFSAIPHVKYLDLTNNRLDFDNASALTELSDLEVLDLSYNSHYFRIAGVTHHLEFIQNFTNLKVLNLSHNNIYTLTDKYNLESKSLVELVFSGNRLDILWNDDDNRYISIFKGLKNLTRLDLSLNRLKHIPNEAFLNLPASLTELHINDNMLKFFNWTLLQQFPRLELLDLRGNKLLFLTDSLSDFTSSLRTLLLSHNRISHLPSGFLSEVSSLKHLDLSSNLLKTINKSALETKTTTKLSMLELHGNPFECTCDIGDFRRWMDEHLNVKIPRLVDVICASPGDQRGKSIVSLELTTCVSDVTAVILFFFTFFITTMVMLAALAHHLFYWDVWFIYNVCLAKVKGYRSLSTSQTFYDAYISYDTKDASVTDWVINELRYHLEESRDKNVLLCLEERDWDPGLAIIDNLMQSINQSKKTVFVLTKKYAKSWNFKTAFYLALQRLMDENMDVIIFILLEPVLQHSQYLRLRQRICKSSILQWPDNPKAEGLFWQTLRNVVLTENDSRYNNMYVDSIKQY
# EXPERIMENTAL_DETAILS: agonistic activity on hTLR8, HEK-Blue hTLR cells, SEAP reporter (QUANTI-Blue)
# Format: cell-based
# SETTINGS: HEK-Blue hTLR cells, SEAP reporter, OD650, cultured 1 day; read-out: TLR 8 EC50
Rule: EC50 below 800 nM gives met, anything at or above gives not met.

COMPOUND	TESTED_TARGET	CATEGORY
CCOCc1nc2c(N)nc3ccccc3c2n1C[C@@H](C)O[P@@](=O)(N[C@H](C)C(=O)OC(C)C)Oc1ccccc1 (single isomer, unassigned) [Example 13A]	hTLR8 (Homo sapiens, UniProt Q9NR97)	met
CCOCc1nc2c(N)nc3ccccc3c2n1C[C@@H](C)O (single isomer, unassigned)	hTLR8 (Homo sapiens, UniProt Q9NR97)	not met
CCOCc1nc2c(N)nc3ccccc3c2n1C[C@H](C)O	hTLR8 (Homo sapiens, UniProt Q9NR97)	not met
CCOCc1nc2c(N)nc3ccccc3c2n1C[C@@H](C)OP(=O)(N[C@@H](C)C(=O)OC(C)C)Oc1cccc2ccccc12 (single isomer, unassigned)	hTLR8 (Homo sapiens, UniProt Q9NR97)	met
CCOCc1nc2c(N)nc3ccccc3c2n1C[C@@H](C)O[P@](=O)(N[C@@H](C)C(=O)OC(C)C)Oc1ccccc1Cl (single isomer, unassigned) [Example 10B]	hTLR8 (Homo sapiens, UniProt Q9NR97)	met
CCOCc1nc2c(N)nc3ccccc3c2n1C[C@@H](C)O[P@](=O)(N[C@@H](C)C(=O)OC(C)C)Oc1ccccc1 (single isomer, unassigned)	hTLR8 (Homo sapiens, UniProt Q9NR97)	not met
